EXPERIMENT_DESCRIPTION: melting temperature; fluorescence melt of hairpins on a sequencing array, two-state fit, raised by 9.35 °C to match UV melts
CONDITION_LABEL: sodium 0.088 M
Listing: Tm of selected sequences
A number alone suffices; assume °C.

Solved cases (5 shown):
>>> test_value("GCTGTCGAAAGACGGAGC ((((((....)))..)))")
42.9
>>> test_value("GTGTTGCGAAAGCAGCAC (((.(((....))).)))")
64.3
>>> test_value("GCGAGCAGTCGC ((((....))))")
52.6
>>> test_value("GATCAATCTTTGATC ((((((...))))))")
44.6
>>> test_value("GTGCTTTCGAAAGAACAC (((..(((....))))))")
36.7

[Q] Sample GCAGGCGAAAGCCTGTGC ((((((....)))..))) — what was its Tm?
[A] 68.2

---

EXPERIMENT_DESCRIPTION: folding enthalpy; higher = less favourable; fluorescence melt of hairpins on a sequencing array, two-state fit
CONDITION_LABEL: sodium 0.088 M
Label Not fulfilled if folding enthalpy falls below -20 kcal/mol; label Fulfilled in every other case.

>>> cat("GATCAATCCTTTGATC ((((((....))))))")
"Not fulfilled"
>>> cat("GACACAGGAAACTGTACC (..((((....))))..)")
"Fulfilled"
>>> cat("GGGCACCGAAAGGTTCCC (((.(((....))).)))")
"Not fulfilled"
>>> cat("GAACACGAAAGTGTATTC ((((((....)))..)))")
"Fulfilled"
>>> cat("GGTTATGGAAACACAACC ((((.((....)).))))")
"Not fulfilled"

[Q] Is the recorded value of folding enthalpy equal to or greater than -20 kcal/mol for this sequence? GCGGTCGGAAACAACCGC (((((.(....).)))))
[A] Not fulfilled

[Q] Form field: folding enthalpy at least -20 kcal/mol? Entry: GTGTGGCGAAAGCCCAC (((.(((....))))))
[A] Fulfilled

[Q] Kindly determine if folding enthalpy recorded for GACAACGAAAGTTGAGTC ((((((....)))..))) is above or exactly -20 kcal/mol.
[A] Fulfilled

[Q] folding enthalpy >= -20 kcal/mol for GCTTTGCGAAAGCAATGC ((.((((....)))).)) ?
[A] Not fulfilled

[Q] Does GATCAACACTTGATC ((((((...)))))) have a reported folding enthalpy of at least -20 kcal/mol?
[A] Not fulfilled

[Q] Kindly determine if folding enthalpy recorded for GACTAGGGAAACCTAGTC (((((((....))))))) is above or exactly -20 kcal/mol.
[A] Not fulfilled

[Q] Is reported folding enthalpy greater than or equal to -20 kcal/mol here: GTTTCCGAAAGGAAAAC ((((((....))).)))
[A] Fulfilled

[Q] Determine whether this sequence has folding enthalpy no lower than -20 kcal/mol: TGGAGGAAACTCCA (((((....)))))
[A] Fulfilled

[Q] Does GTGCAGGGAAACCCACAC (((..((....))..))) have a reported folding enthalpy of at least -20 kcal/mol?
[A] Fulfilled

[Q] Hi, just wondering whether GCCGAGCCGAAAGGCGGC (((..(((....)))))) shows folding enthalpy of -20 kcal/mol or higher.
[A] Fulfilled

[Q] Reported folding enthalpy at or above -20 kcal/mol? GACACTGGAAACAGTATC ((.((((....)))).))
[A] Fulfilled

[Q] # check: folding enthalpy of GTAAGCGGAAACGCTTGC (.(((((....))))).) is greater than or equal to -20 kcal/mol
[A] Not fulfilled

[Q] folding enthalpy >= -20 kcal/mol for GCAACGCGAAAGCGTAGC ((.((((....)))).)) ?
[A] Fulfilled

[Q] Would you say GCTTGGCGAAAGCGAGGC ((.(.((....)).).)) shows folding enthalpy at minimum -20 kcal/mol?
[A] Fulfilled

---

EXPERIMENT_DESCRIPTION: folding enthalpy; higher = less favourable; fluorescence melt of hairpins on a sequencing array, two-state fit
CONDITION_LABEL: sodium 0.088 M
QUANTITY_NAME: folding enthalpy

A selection of reference data follows.
>>> test_value("GTCAGCGGAAACGCCGAC (((.(((....))).)))")
"-26.9 kcal/mol"
>>> test_value("GGGCACGAAAGTGCACCC ((((((....)))..)))")
"-10.8 kcal/mol"
>>> test_value("GATCGTTCTTACGATC ((((((....))))))")
"-40.6 kcal/mol"
>>> test_value("GGTAAACGAAAGTTGACC (((.(((....))).)))")
"-36.3 kcal/mol"
>>> test_value("GATCAACCTTTTGATC ((((((....))))))")
"-29.7 kcal/mol"

// moving on: another record for folding enthalpy
[Q] Recorded folding enthalpy of GAACCCGGAAACAGGTTC (((((.(....).))))) , please.
[A] -25.9 kcal/mol

---

EXPERIMENT_DESCRIPTION: folding enthalpy; higher = less favourable; fluorescence melt of hairpins on a sequencing array, two-state fit
CONDITION_LABEL: sodium 0.088 M
Param threshold (-20 kcal/mol) applies to folding enthalpy; output criterion met when value >= threshold, criterion not met when value < threshold.

>>> cat("GACACCGAAAGGTGCGTC ((((((....)))..)))")
"criterion met"
>>> cat("GACTACGAAAGTAAGGTC ((((((....)))..)))")
"criterion not met"
>>> cat("GTTGCTGGAAACGGTAAC (((.(.(....).).)))")
"criterion met"
>>> cat("GAGATCGGAAACGATTTC ((.((((....)))).))")
"criterion not met"
>>> cat("GCCGAACGAAAGTTTGGC (((.(((....))).)))")
"criterion not met"
>>> cat("GATCCCATCCGGGATC ((((((....))))))")
"criterion not met"
>>> cat("GATCTCTGGGAGATC ((((((...))))))")
"criterion not met"
>>> cat("CGGGTCGGAAACGAACCG (((.(((....))).)))")
"criterion not met"
>>> cat("GCTGTGGGAAACCATAGC (((.(((....))).)))")
"criterion not met"
>>> cat("GATCTGCTAGCAGATC ((((((....))))))")
"criterion not met"

Then there is this sequence:
[Q] # check: folding enthalpy of GGTCACGAAAGTGACACC ((((((....)))..))) is greater than or equal to -20 kcal/mol
[A] criterion met

---

EXPERIMENT_DESCRIPTION: melting temperature; fluorescence melt of hairpins on a sequencing array, two-state fit, raised by 9.35 °C to match UV melts
CONDITION_LABEL: sodium 0.088 M
QUANTITY_NAME: Tm (°C)
The reply should be a number in °C, with the unit left off.

>>> test_value("GAGGACGGAAACGCCCTC ((((.((....)).))))")
51.7
>>> test_value("GATCTGGAAGCAGATC ((((((....))))))")
50.8
>>> test_value("GTGACACGAAAGTGACAC (((.(((....))).)))")
58.7
>>> test_value("GGGCCAGGAAACTAGCCC ((((.((....)).))))")
48.6

[Q] // returns reported Tm for input GTCGCCGGAAACGACGAC ((((.((....)).))))
[A] 57.5

[Q] Which Tm is reported for this sequence? GATATTGAAAAATATC ((((((....))))))
[A] 37

[Q] Report Tm for GAATGCGGAAACGCGTTC (((.(((....))).))) please.
[A] 54.2

---

EXPERIMENT_DESCRIPTION: folding enthalpy; higher = less favourable; fluorescence melt of hairpins on a sequencing array, two-state fit
CONDITION_LABEL: sodium 0.088 M
QUANTITY_NAME: folding enthalpy

>>> test_value("GACCTACGAAAGTAAGTC (((.(((....))).)))")
"-23.1 kcal/mol"
>>> test_value("GAGAACGGAAACGTTCTC (((((((....)))))))")
"-41.8 kcal/mol"
>>> test_value("GCTTACCGAAAGGTGAGC (((.(((....))).)))")
"-40.5 kcal/mol"

[Q] What does the data say about its folding enthalpy? Entry: GTCCATCGAAAGATGAC (((.(((....))))))
[A] -16.9 kcal/mol

[Q] Entry CAATGGAAACATTG (((((....))))) : reported folding enthalpy = ?
[A] -26 kcal/mol

[Q] Recorded folding enthalpy of GATCTGCGCTCAGATC ((((((....)))))) , please.
[A] -39.7 kcal/mol
